These entries and their values trace back to patent US10538487B2.

Assay: Single dose pharmacokinetic study in mice (iv 4 mg/Kg, po 20 mg/Kg), plasma concentration post-dosing
Type: in vivo, mouse
Conditions: male, C57BL/6, mouse, plasma, iv, 4 mg/kg, mouse, IV 4 mg/Kg, 0.500 h post dosing, mean of 3 mice; read-out: Plasma concentration, IV Time 0.500 h, Mean IV
Exercise: state measured concentration at 0.5 h for each of the compounds provided.
Answers are plain numbers, in ng/mL.

• CC(C)n1ccc(S(=O)(=O)NC(=O)Nc2c3c(cc4c2CCC4)CCC3)n1 = 25000

We next turn to a different compound, shown below.
*Q* I'd like to know its concentration at 0.5 h. The compound in question is CC(C)(O)c1coc(S(=O)(=O)NC(=O)Nc2c3c(cc4c2CCC4)CCC3)c1 [MCC_000950_016, reference compound]
*A* 10500
